- study-target: S. pyogenes SKKanGAS, kanamycin survival, BacTiterGlo, 6 h
- experiment-description: S. pyogenes SKKanGAS kanamycin growth inhibitors – SKKanGAS strain, luminescence, dose confirmation, streptokinase promoter inhibitor project, dose response (AID 1902);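 also: lower survival reflects blocked streptokinase promoter driving kanamycin resistance gene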
The source made the active and inactive calls.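 The calls were made as follows: active = EC50 no more than a set limit of log units above the highest dose; inactive = the rest.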
Labels: active, inactive

- compound: "C/C(N)=C(/C#N)C(=O)COC(=O)c1cc(-c2ccc(Br)cc2)nc2ccccc12"
  assigned-class: "active"
- compound: "O=C(/C=C/c1cccc([N+](=O)[O-])c1)c1ccc([N+](=O)[O-])o1"
  assigned-class: "active"
- compound: "CN(C)c1ccc(O)c2c1CC1CC3C(N(C)C)C(=O)C(C(N)=O)=C(O)[C@@]3(O)C(=O)C1=C2O (stereo not given in full)"
  assigned-class: "active"
- compound: "COc1cc(/C=N/Nc2nc(Nc3ccc(C)cc3)nc(-n3nc(C)cc3C)n2)cc(OC)c1OC"
  assigned-class: "active"
- compound: "COCCn1c(N)c(C(=O)Nc2sc3c(c2C(=O)OC)CCCC3)c2nc3ccccc3nc21"
  assigned-class: "active"
- compound: "COc1ccc(CNCC(O)(c2ccc(Cl)cc2)c2ccc(Cl)cc2)cc1"
  assigned-class: "active"
- compound: "CCCCNc1c(-c2cccc(-c3ccc(OC)cc3)c2)nc2ccc(C)cn12"
  assigned-class: "active"
- compound: "CCOc1ccc(-c2nnc(NC(=O)c3ccc(OCC(C)C)c(OC)c3)o2)cc1"
  assigned-class: "active"
- compound: "Cc1csc(NC(=O)c2c(O)c3c(n(CC(C)C)c2=O)CCCC3)n1"
  assigned-class: "active"
- compound: "CSc1ccccc1-c1n[nH]c(=S)o1"
  assigned-class: "inactive"

====

- study-target: S. pyogenes SKKanGAS, kanamycin survival, BacTiterGlo, 6 h
- experiment-description: S. pyogenes SKKanGAS kanamycin growth inhibitors – SKKanGAS strain, luminescence, dose confirmation, streptokinase promoter inhibitor project, dose response (AID 1902);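 also: lower survival reflects blocked streptokinase promoter driving kanamycin resistance gene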
pEC50: −log10 of the molar value.
quantity-measured: pEC50

- smiles-notation: "CSc1nc(SCC(=O)O)c2sc3nc(-c4ccccc4)c4c(c3c2n1)CCC4"
  quantity-measured: "pEC50"
  assay-value: 5.94
- smiles-notation: "CCCN(CCC)S(=O)(=O)c1ccc(C(=O)Nc2nnc(COC)o2)cc1"
  quantity-measured: "pEC50"
  assay-value: 5.30
- smiles-notation: "C/C(=C\\C(=O)OCCCCCCCCC(=O)O)C[C@@H]1OC[C@H](C[C@@H]2O[C@H]2[C@@H](C)[C@H](C)O)[C@@H](O)[C@H]1O"
  quantity-measured: "pEC50"
  assay-value: "> 7.22"
- smiles-notation: "CCCCCCCC(=O)NNC(=O)c1c(O)c2ccccc2n(CCC)c1=O"
  quantity-measured: "pEC50"
  assay-value: 5.96
- smiles-notation: "Cc1ccccc1OCCCCc1c(C)n[nH]c1C"
  quantity-measured: "pEC50"
  assay-value: 5.13
- smiles-notation: "O=C(Nc1nc2ccccc2n1Cc1ccccc1)c1ccco1"
  quantity-measured: "pEC50"
  assay-value: 5.54
- smiles-notation: "COc1ccccc1/C=N\\Nc1cc(C)nc(-n2nc(C)cc2C)n1"
  quantity-measured: "pEC50"
  assay-value: 5.20
- smiles-notation: "O=C(N/N=C/c1c(O)n(Cc2ccco2)c(=O)[nH]c1=O)c1ccccc1O"
  quantity-measured: "pEC50"
  assay-value: 5.55
- smiles-notation: "CC(C)Oc1ccc(C(=O)Nc2nc3ccccc3[nH]2)cc1"
  quantity-measured: "pEC50"
  assay-value: 5.85

====

- study-target: S. pyogenes SKKanGAS, kanamycin survival, BacTiterGlo, 6 h
- experiment-description: S. pyogenes SKKanGAS kanamycin growth inhibitors – SKKanGAS strain, luminescence, dose confirmation, streptokinase promoter inhibitor project, dose response (AID 1902);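 also: lower survival reflects blocked streptokinase promoter driving kanamycin resistance gene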
Activity calls are given as the source filed them.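 Rule for the calls: active = EC50 no more than a set limit of log units above the highest dose; inactive = the rest.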
Labels: active, inactive

- molecule: "C/C(=N/NS(=O)(=O)c1ccc(Cl)cc1)c1cccc(NC(=O)c2ccc(Cl)cc2Cl)c1"
  study-target: "S. pyogenes SKKanGAS, kanamycin survival, BacTiterGlo, 6 h"
  assigned-class: "active"
- molecule: "COc1cc(NC(=O)c2cc3nc(-c4ccccc4)cc(-c4ccccc4)n3n2)cc(OC)c1OC"
  study-target: "S. pyogenes SKKanGAS, kanamycin survival, BacTiterGlo, 6 h"
  assigned-class: "active"
- molecule: "CCCn1c(C2CCCN2c2nc(-c3cccc(Br)c3)cs2)nc2cc(Cl)c(Cl)cc21 (stereo not drawn)"
  study-target: "S. pyogenes SKKanGAS, kanamycin survival, BacTiterGlo, 6 h"
  assigned-class: "active"
- molecule: "Oc1[nH]c2ccc(Br)cc2c1N=NC(=S)Nc1ccc(F)cc1"
  study-target: "S. pyogenes SKKanGAS, kanamycin survival, BacTiterGlo, 6 h"
  assigned-class: "active"
- molecule: "Cc1c(C(=O)NNC(=O)c2ccccc2O)oc2ccc(Br)cc12"
  study-target: "S. pyogenes SKKanGAS, kanamycin survival, BacTiterGlo, 6 h"
  assigned-class: "inactive"
- molecule: "O=S(=O)(c1ccccc1)N1CCN=C1SCc1c(F)cccc1Cl"
  study-target: "S. pyogenes SKKanGAS, kanamycin survival, BacTiterGlo, 6 h"
  assigned-class: "active"
- molecule: "Cc1nc(N)nc(N)c1CCCc1ccc(Cl)c(Cl)c1"
  study-target: "S. pyogenes SKKanGAS, kanamycin survival, BacTiterGlo, 6 h"
  assigned-class: "active"
- molecule: "Cc1noc(C)c1C(=O)Nc1nccs1"
  study-target: "S. pyogenes SKKanGAS, kanamycin survival, BacTiterGlo, 6 h"
  assigned-class: "inactive"
- molecule: "COc1ccc(C(=O)CSc2[nH]c(=O)cc(C(F)(F)F)c2C#N)cc1"
  study-target: "S. pyogenes SKKanGAS, kanamycin survival, BacTiterGlo, 6 h"
  assigned-class: "active"
- molecule: "CN(C)Cc1nc2ccccc2c(=O)n1Cc1nc(-c2cc3ccccc3o2)cs1"
  study-target: "S. pyogenes SKKanGAS, kanamycin survival, BacTiterGlo, 6 h"
  assigned-class: "active"
- molecule: "COc1ccccc1-c1n[nH]c2c1[C@H](C)CC[C@H]2C(C)C"
  study-target: "S. pyogenes SKKanGAS, kanamycin survival, BacTiterGlo, 6 h"
  assigned-class: "active"
- molecule: "O=C(Nc1cccc(C(F)(F)F)c1)Oc1ccc(Cl)c2cccnc12"
  study-target: "S. pyogenes SKKanGAS, kanamycin survival, BacTiterGlo, 6 h"
  assigned-class: "active"
- molecule: "Cc1onc(-c2ccccc2)c1C(=O)NNC(=S)NC(=O)c1ccc2c(c1)OCO2"
  study-target: "S. pyogenes SKKanGAS, kanamycin survival, BacTiterGlo, 6 h"
  assigned-class: "active"
- molecule: "COCCn1c(SCc2nc3sc(C(=O)OC)c(C)c3c(=O)[nH]2)nc2ccccc21"
  study-target: "S. pyogenes SKKanGAS, kanamycin survival, BacTiterGlo, 6 h"
  assigned-class: "active"
- molecule: "CC1(C)N=C(N)N=C(N)N1c1ccccc1"
  study-target: "S. pyogenes SKKanGAS, kanamycin survival, BacTiterGlo, 6 h"
  assigned-class: "active"
- molecule: "COC(=O)C1=C(C)NC2=C(C(=O)c3ccccc32)C1c1ccc(-c2ccc(C(=O)O)cc2)o1 (stereo not drawn)"
  study-target: "S. pyogenes SKKanGAS, kanamycin survival, BacTiterGlo, 6 h"
  assigned-class: "active"
- molecule: "CCOc1ccc(/C=N/NC(=O)Cc2csc(Nc3cccc(C(F)(F)F)c3)n2)cc1"
  study-target: "S. pyogenes SKKanGAS, kanamycin survival, BacTiterGlo, 6 h"
  assigned-class: "active"
- molecule: "CCOC(=O)c1ccc(NC2=CC(=O)C(=O)c3ccccc32)cc1"
  study-target: "S. pyogenes SKKanGAS, kanamycin survival, BacTiterGlo, 6 h"
  assigned-class: "active"

====

- study-target: S. pyogenes SKKanGAS, kanamycin survival, BacTiterGlo, 6 h
- experiment-description: S. pyogenes SKKanGAS kanamycin growth inhibitors – SKKanGAS strain, luminescence, dose confirmation, streptokinase promoter inhibitor project, dose response (AID 1902);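 also: lower survival reflects blocked streptokinase promoter driving kanamycin resistance gene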
Calls of active or inactive are those of the source.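 Rule for the calls: active = EC50 no more than a set limit of log units above the highest dose; inactive = the rest.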
Outcomes: active, inactive

- compound: "Cc1ccc(C(C)C)c(OCc2ccc(C(=O)N/N=C/c3cccc(O)c3O)cc2)c1"
  study-target: "S. pyogenes SKKanGAS, kanamycin survival, BacTiterGlo, 6 h"
  assigned-class: "active"
- compound: "CCOC(=O)Nc1ccc(OCc2nnc3c4ccccc4c(C)nn23)cc1"
  study-target: "S. pyogenes SKKanGAS, kanamycin survival, BacTiterGlo, 6 h"
  assigned-class: "active"
- compound: "COc1cccc(C(=O)NC(=S)N2CCN(c3ccc(C(F)(F)F)cc3[N+](=O)[O-])CC2)c1"
  study-target: "S. pyogenes SKKanGAS, kanamycin survival, BacTiterGlo, 6 h"
  assigned-class: "inactive"
- compound: "Cc1nn(CC(=O)NC2C(=O)N3C(C(=O)O)=C(CSc4nnnn4C)CSC23)cc1Br (stereo not given)"
  study-target: "S. pyogenes SKKanGAS, kanamycin survival, BacTiterGlo, 6 h"
  assigned-class: "active"
- compound: "O=C1c2ccccc2CCC12N=NCC2c1ccc(Br)cc1 (stereo not given)"
  study-target: "S. pyogenes SKKanGAS, kanamycin survival, BacTiterGlo, 6 h"
  assigned-class: "active"
